Target under test: Serine/threonine-protein kinase VRK1 (Homo sapiens)
Sequence (Q99986 whole entry): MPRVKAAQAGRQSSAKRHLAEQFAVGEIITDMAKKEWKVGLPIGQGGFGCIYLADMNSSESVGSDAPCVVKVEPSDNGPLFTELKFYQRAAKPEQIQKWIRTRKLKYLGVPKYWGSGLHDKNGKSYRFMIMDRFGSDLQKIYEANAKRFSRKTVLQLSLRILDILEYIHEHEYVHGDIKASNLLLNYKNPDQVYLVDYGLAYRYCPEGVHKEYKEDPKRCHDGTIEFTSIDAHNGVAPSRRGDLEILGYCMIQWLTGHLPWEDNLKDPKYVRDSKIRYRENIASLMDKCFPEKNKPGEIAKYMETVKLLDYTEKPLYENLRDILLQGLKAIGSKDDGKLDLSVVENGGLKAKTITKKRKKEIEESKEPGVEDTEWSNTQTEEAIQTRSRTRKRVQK
The entries below pair compounds with IC50 values for Serine/threonine-protein kinase VRK1 (Homo sapiens), as found in several publications.
Experimental endpoint: IC50

[[record]]
mol = "CNC(=O)c1cc(Oc2ccc(NC(=O)Nc3cc(C(C)(C)C)nn3-c3ccc4ncccc4c3)c(F)c2)ccn1"
target_under_test = "Serine/threonine-protein kinase VRK1 (Homo sapiens)"
observed_result = "> 1 µM"

[[record]]
mol = "Oc1cccc(Nc2ccnc3[nH]c4ccccc4c23)c1"
target_under_test = "Serine/threonine-protein kinase VRK1 (Homo sapiens)"
observed_result = "> 10 µM"

[[record]]
mol = "COc1ccc(CNc2ccnc3oc4ccccc4c23)cc1"
target_under_test = "Serine/threonine-protein kinase VRK1 (Homo sapiens)"
observed_result = "129 µM"

